EXPERIMENTAL_TARGET: human P2X7 receptor (Homo sapiens (Human), UniProt Q99572, R270H)
Sequence (Q99572 whole entry R270H): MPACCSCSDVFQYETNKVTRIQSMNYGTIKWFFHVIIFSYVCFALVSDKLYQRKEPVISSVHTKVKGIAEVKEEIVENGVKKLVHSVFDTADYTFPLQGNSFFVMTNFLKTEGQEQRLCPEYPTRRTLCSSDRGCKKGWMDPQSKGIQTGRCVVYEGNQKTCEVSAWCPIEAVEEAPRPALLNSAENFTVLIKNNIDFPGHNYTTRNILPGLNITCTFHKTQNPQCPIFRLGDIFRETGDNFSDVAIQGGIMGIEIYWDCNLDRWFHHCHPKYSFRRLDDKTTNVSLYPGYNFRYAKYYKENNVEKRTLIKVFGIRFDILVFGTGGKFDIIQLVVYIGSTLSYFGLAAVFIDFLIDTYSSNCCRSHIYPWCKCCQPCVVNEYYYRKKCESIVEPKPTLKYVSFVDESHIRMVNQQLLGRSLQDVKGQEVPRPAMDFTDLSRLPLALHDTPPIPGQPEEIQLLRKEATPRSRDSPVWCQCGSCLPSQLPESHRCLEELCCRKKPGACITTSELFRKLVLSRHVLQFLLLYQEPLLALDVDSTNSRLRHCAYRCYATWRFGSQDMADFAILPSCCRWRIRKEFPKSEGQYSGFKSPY
EXPERIMENTAL_DETAILS: Evaluation of a human P2X7 receptor inhibitory activity (Yo-Pro uptake, BzATP stimulation, FLIPR TETRA)
Format: cell-based
CONDITION_PARAMETERS: 1321N1 cells stably expressing human P2X7 receptor, Yo-Pro fluorescence, class symbols

>  <COMPOUND>
Cc1ccc(OC(F)(F)CO)cc1NC1=NC(=O)N(C)C2=NCC(c3cc(F)c(F)c(F)c3)N12 (centres unmarked)

>  <IC50>
10 to 100 nM

$$$$
>  <COMPOUND>
COc1cc(NC2=NC(=O)N(C)C3=NCC(c4cc(F)c(F)c(F)c4)N23)c(C)nc1OC (centres unmarked)

>  <IC50>
100 to 500 nM

$$$$
>  <COMPOUND>
CCOc1cc(NC2=NC(=O)N(C)C3=NCC(c4cc(F)c(F)c(F)c4)N23)c(C)cc1F (centres unmarked)

>  <IC50>
10 to 100 nM

$$$$
>  <COMPOUND>
Cc1ccc(NC2=NC(=O)N(C)C3=NCC(c4cc(F)cc(F)c4)N23)c(C)n1 (centres unmarked)

>  <IC50>
100 to 500 nM

$$$$
>  <COMPOUND>
Cc1ccc(C#N)cc1NC1=NC(=O)N(CCO)C2=NCC(c3cc(F)c(F)c(F)c3)N12 (centres unmarked)

>  <IC50>
10 to 100 nM

$$$$
>  <COMPOUND>
COc1cc(C)c(NC2=NC(=O)N(C)C3=NCC(c4ccc(F)c(F)c4)N23)cc1OC (centres unmarked)

>  <IC50>
10 to 100 nM

$$$$
>  <COMPOUND>
Cc1cc(F)c(C#N)cc1NC1=NC(=O)N(C)C2=NCC(c3cc(F)c(F)c(F)c3)N12 (centres unmarked)

>  <IC50>
10 to 100 nM

$$$$
>  <COMPOUND>
CCN1C(=O)N=C(Nc2ccc(OC)cc2C)N2C1=NCC2c1ccc(F)cc1 (centres unmarked)

>  <IC50>
10 to 100 nM

$$$$

Recorded values, source patent US11066409B2.
